# System: ATP;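 note: ATP exposure 15 min at 22 °C before imaging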
# experiment: switch fluorescence ratio, 500 uM ATP over buffer (Cy3 cluster intensity, sum of 5 cycles each) (fold (ratio)); higher = stronger signal-on switching upon ATP binding; sequences stand for … in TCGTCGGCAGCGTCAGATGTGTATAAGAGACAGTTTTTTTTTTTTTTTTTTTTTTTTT…TC
# experimental.context: aptamer strand: ATP DNA aptamer (quencher-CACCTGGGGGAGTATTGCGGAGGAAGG + anchor), 100 nM annealed; ATP concentration: 500 uM
recorded.metric: switch fluorescence ratio
Lab note: jot down the number only; don't add units.

Worked examples, 2 sequences total:
AATAGGGACC
1.07
AATACGGGAC
1.3

Inquiry: Would you kindly share the measured switch fluorescence ratio for CTCTTTCGAT ?
Reply text: 1.03

Inquiry: Next record, please: ATTTGCAACT
Reply text: 0.994

Inquiry: Next record, please: GGGATTGCTA
Reply text: 1.03

Inquiry: Next record, please: ATGCCCTTCG
Reply text: 1.04

Inquiry: Next record, please: ACCGCGTTTT
Reply text: 1.03

Inquiry: Next record, please: CCTTTTTTAT
Reply text: 1.03

Inquiry: Next record, please: AAAAGGAGTT
Reply text: 0.998

Inquiry: Next record, please: GCGTGTCTAT
Reply text: 0.991

Inquiry: Next record, please: AGTATGAGGT
Reply text: 0.98

Inquiry: Next record, please: AAGTCAGCTG
Reply text: 0.983

Inquiry: Next record, please: ATTATTGGTA
Reply text: 0.987

Inquiry: Next record, please: GAAGTACGTC
Reply text: 1.23

====

Measured switch fluorescence ratio, listed per entry.
# Test system: ATP;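 note: ATP exposure 15 min at 22 °C before imaging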
# experiment: switch fluorescence ratio, 500 uM ATP over buffer (Cy3 cluster intensity, sum of 5 cycles each) (fold (ratio)); higher = stronger signal-on switching upon ATP binding; sequences stand for … in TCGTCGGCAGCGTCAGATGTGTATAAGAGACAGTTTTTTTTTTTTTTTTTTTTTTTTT…TC
# experimental.context: aptamer strand: ATP DNA aptamer (quencher-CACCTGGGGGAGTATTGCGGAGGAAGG + anchor), 100 nM annealed; ATP concentration: 500 uM
Lab note: jot down the number only; don't add units.

Inquiry: Value wanted: switch fluorescence ratio (ATP) of entry CCTATCGTTG
Reply text: 1.08

Inquiry: Next record, please: CAGGGGTTTG
Reply text: 1

Inquiry: Next record, please: TTTTTCCTGA
Reply text: 1.02

Inquiry: Next record, please: TATGAATATT
Reply text: 0.985

====

Measured switch fluorescence ratio, listed per entry.
# System: ATP;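 note: ATP exposure 15 min at 22 °C before imaging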
# experiment: switch fluorescence ratio, 500 uM ATP over buffer (Cy3 cluster intensity, sum of 5 cycles each) (fold (ratio)); higher = stronger signal-on switching upon ATP binding; sequences stand for … in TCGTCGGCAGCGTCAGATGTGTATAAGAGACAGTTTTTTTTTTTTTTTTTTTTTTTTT…TC
# experimental.context: aptamer strand: ATP DNA aptamer (quencher-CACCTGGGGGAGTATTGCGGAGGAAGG + anchor), 100 nM annealed; ATP concentration: 500 uM

Worked examples, 3 sequences total:
AGAAGGGGGG
0.998
AATCGTATTC
0.972
GCTATAGTCG
1.02

Inquiry: Value wanted: switch fluorescence ratio (ATP) of entry CCAACGGGCA
Reply text: 1.08

Inquiry: Next record, please: AGTTTTTTGC
Reply text: 0.908
